Entry source: patent US9580416B2

- STUDY TARGET: EGFR (Homo sapiens, UniProt P00533)
- Sequence (P00533 25-1210): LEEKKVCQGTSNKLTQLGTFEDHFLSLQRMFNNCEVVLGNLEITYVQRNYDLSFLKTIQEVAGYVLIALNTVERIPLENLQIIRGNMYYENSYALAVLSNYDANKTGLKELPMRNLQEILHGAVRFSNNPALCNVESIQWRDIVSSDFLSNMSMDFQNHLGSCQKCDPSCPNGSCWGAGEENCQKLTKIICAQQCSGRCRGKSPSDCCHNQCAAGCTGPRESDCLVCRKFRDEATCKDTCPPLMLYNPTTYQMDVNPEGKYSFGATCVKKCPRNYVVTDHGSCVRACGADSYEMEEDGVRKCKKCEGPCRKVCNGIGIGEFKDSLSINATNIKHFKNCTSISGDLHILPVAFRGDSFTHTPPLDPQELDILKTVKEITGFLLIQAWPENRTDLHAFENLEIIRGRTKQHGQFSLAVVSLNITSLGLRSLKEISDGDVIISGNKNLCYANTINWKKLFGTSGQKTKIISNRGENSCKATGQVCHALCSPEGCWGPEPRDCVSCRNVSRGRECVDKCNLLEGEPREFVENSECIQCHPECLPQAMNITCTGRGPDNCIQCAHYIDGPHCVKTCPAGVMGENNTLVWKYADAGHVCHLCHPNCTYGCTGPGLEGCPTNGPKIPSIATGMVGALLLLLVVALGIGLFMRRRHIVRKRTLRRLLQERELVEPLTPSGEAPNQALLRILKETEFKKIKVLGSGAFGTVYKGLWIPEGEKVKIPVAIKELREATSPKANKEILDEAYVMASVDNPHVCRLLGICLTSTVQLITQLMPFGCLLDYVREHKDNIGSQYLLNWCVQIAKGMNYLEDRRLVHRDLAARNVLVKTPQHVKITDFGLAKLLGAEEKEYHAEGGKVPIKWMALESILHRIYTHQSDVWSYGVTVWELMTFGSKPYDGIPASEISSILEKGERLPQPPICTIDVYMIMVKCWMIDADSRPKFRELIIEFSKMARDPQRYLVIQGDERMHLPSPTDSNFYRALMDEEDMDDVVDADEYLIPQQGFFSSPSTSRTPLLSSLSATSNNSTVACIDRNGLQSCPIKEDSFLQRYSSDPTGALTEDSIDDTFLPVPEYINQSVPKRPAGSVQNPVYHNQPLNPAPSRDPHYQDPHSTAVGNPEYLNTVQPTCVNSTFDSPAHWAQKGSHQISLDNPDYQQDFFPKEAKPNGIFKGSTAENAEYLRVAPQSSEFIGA
PARAMETER: IC50

Consider the reported IC50 for these compounds:
Cc1ccnc(NC(=O)c2ccc(Oc3ccnc4[nH]nc(N[C@@H]5CCCN(C(=O)C6COC6)C5)c34)cc2)c1 = 1000 to 10000 nM
C=CC(=O)N1CCC[C@@H](Nc2n[nH]c3nccc(Oc4ccc(C(=O)Nc5nc(C)c(C)s5)cc4)c23)C1 = 100 to 1000 nM
CN(C/C=C/C(=O)N1CC[C@@H](Nc2n[nH]c3nccc(Oc4ccc(Oc5ccccc5)cc4C#N)c23)C1)C1CC1 = > 10000 nM

// moving on: another record for IC50
// query Record N#Cc1cc(Nc2n[nH]c3nccc(Oc4ccc(Oc5ccccc5)cc4)c23)ccn1 : what is its IC50 with EGFR (Homo sapiens, UniProt P00533)?
// result 100 to 1000 nM

----------
Each entry below carries its reported IC50.
- STUDY TARGET: Lck (Homo sapiens, UniProt P06239)
- Sequence (P06239 whole entry, species assumed): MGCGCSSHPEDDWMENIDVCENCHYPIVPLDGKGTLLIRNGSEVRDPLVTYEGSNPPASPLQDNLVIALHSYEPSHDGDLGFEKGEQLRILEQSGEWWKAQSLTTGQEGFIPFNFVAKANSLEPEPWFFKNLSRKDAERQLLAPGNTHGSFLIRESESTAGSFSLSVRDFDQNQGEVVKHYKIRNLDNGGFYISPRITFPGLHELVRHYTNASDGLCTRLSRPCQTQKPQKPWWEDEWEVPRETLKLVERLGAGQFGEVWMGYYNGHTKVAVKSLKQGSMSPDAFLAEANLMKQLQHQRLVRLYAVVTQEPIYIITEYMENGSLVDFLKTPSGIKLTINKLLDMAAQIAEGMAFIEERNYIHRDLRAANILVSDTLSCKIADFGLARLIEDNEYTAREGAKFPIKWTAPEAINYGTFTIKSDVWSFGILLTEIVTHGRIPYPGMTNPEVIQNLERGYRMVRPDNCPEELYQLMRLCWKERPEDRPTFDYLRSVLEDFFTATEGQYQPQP
- TEST NAME: Lck kinase activity, TR-FRET assay
- Type: biochemical
- APPLIED CONDITIONS: read-out: LCK (IC50)

// query Need IC50 of Cc1cc(NC(=O)c2cccc(Oc3ccnc4[nH]nc(N[C@H]5CCN(C(=O)C6CC6)C5)c34)c2)ccc1C(C)C , thanks.
// result < 0.1 µM

// query Thanks! And CCCc1ccnc(NC(=O)c2ccc(Oc3ccnc4[nH]nc(N[C@@H]5CCN(C(=O)/C=C/CN(C)C6CC6)C5)c34)cc2)c1 ?
// result 0.1 to 1 µM

// query Thanks! And CN(C)C/C=C/C(=O)N(C)[C@H]1CC[C@@H](Nc2n[nH]c3nccc(Oc4cccc(Oc5ccccc5)c4)c23)CC1 ?
// result 0.1 to 1 µM

----------
- STUDY TARGET: Btk (Homo sapiens, UniProt Q06187)
- Sequence (Q06187 whole entry): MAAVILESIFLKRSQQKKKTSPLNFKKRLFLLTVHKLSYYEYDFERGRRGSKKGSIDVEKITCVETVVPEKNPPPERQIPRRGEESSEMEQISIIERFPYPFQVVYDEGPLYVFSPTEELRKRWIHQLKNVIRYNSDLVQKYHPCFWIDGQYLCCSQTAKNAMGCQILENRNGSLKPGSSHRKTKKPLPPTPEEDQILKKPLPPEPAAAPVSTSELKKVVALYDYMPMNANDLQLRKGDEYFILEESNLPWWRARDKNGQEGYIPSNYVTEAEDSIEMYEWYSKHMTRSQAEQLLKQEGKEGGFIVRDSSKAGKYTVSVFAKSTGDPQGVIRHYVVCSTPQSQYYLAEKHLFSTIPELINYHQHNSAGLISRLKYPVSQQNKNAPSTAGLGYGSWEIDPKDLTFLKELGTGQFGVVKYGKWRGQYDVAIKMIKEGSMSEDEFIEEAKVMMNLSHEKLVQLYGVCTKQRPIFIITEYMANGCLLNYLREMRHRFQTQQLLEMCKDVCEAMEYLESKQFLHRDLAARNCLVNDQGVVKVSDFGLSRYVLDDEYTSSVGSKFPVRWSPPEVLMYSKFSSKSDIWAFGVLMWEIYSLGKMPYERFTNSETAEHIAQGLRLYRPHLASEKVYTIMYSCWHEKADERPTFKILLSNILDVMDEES
- TEST NAME: Btk kinase activity, TR-FRET assay
- Format: biochemical
- APPLIED CONDITIONS: read-out: Btk (IC50)
- Protocol: Btk kinase activity is determined using a time-resolved fluorescence resonance energy transfer (TR-FRET) methodology. Measurements are performed in a reaction volume of 50 μL using 96-well assay plates. […] The TR-FRET signal is measured on a multimode plate reader with an excitation wavelength (λEx) of 330 nm and detection wavelengths (λEm) of 615 and 665 nm. Activity is determined by the ratio of the fluorescence at 665 nm to that at 615 nm. […]
Each entry below carries its reported IC50.

Consider the reported IC50 for these compounds:
Cc1ccnc(NC(=O)c2ccc(Oc3ccnc4[nH]nc(N[C@@H]5CCCN(C(=O)C6(C)CCOCC6)C5)c34)cc2)c1 = < 100 nM
CC#CC(=O)N1CCC[C@@H](Nc2n[nH]c3nccc(Oc4ccc(C(=O)Nc5cc(C(F)(F)F)ccn5)cc4)c23)C1 = < 100 nM
C=CC(=O)N1CCC(Nc2n[nH]c3nccc(Oc4ccc(Oc5ccccc5)cc4)c23)CC1 = < 100 nM
CC(C)c1ccnc(NC(=O)c2ccc(Oc3ccnc4[nH]nc(N[C@@H]5CCN(C(=O)/C=C/CN(C)C6CC6)C5)c34)cc2)c1 = < 100 nM
CC(=O)N1CCN(C(=O)c2cccc(Oc3ccnc4[nH]nc(N[C@@H]5CCCNC5)c34)c2)CC1 = 100 to 1000 nM

// query Need IC50 of Cc1ccnc(NC(=O)c2ccc(Oc3ccnc4[nH]nc(NC5CCN(C(=O)C6(C)CCN(C)CC6)CC5)c34)cc2)c1 , thanks.
// result 100 to 1000 nM

// query Thanks! And CN(C/C=C/C(=O)N1CC[C@@H](Nc2n[nH]c3nccc(Oc4ccc(C(=O)Nc5ncc[nH]5)cc4)c23)C1)C1CC1 ?
// result 100 to 1000 nM

// query Thanks! And Cc1nnc(NC(=O)c2ccc(Oc3ccnc4[nH]nc(N[C@@H]5CCCN(C(=O)/C=C/CN(C)C6CC6)C5)c34)cc2)s1 ?
// result > 10000 nM

----------
- STUDY TARGET: EGFR (Homo sapiens, UniProt P00533)
- TEST NAME: Inhibition of a panel of kinases, in vitro HotSpot kinase assay: EGFR
- Format: biochemical
pIC50: −log10 of the molar value.
PARAMETER: pIC50

C=CC(=O)N1CCC[C@@H](Nc2n[nH]c3nccc(Oc4ccc(-c5nc6ccccc6o5)cc4)c23)C1 = 5.00 to 6.00

// query Need pIC50 of Cc1cc(Oc2ccnc3[nH]nc(N[C@@H]4CCCN(C(=O)/C=C/CN(C)C5CC5)C4)c23)ccc1Oc1ccccc1 , thanks.
// result 6.00 to 7.00

// query Thanks! And CC#CC(=O)N1CCC[C@@H](Nc2n[nH]c3nccc(Oc4ccc(C(=O)Nc5ncc(CC)s5)cc4)c23)C1 ?
// result 5.00 to 6.00

// query Thanks! And N#CCC(=O)N1CC[C@@H](Nc2n[nH]c3nccc(Oc4ccc(Oc5ccccc5)cc4)c23)C1 ?
// result 6.00 to 7.00

// query Thanks! And CCOP(=O)(CCC(=O)N1CCC[C@@H](Nc2n[nH]c3nccc(Oc4ccc(C(=O)Nc5cc(C)ccn5)cc4)c23)C1)OCC ?
// result < 5.00

// query Thanks! And CCOC(=O)N1CCC[C@@H](Nc2n[nH]c3nccc(Oc4ccc(C(=O)Nc5cc(C)ccn5)cc4)c23)C1 ?
// result 5.00 to 6.00

// query Thanks! And Cc1ccnc(NC(=O)c2ccc(Oc3ccnc4[nH]nc(N[C@@H]5CCCN(C(=O)C(N)=O)C5)c34)cc2)c1 ?
// result 6.00 to 7.00

----------
- STUDY TARGET: UniProt Q06187
- TEST NAME: Btk kinase activity, TR-FRET assay
- Assay type: biochemical
pIC50: −log10 of the molar value.
PARAMETER: pIC50

// query Need pIC50 of Cc1ccnc(NC(=O)c2ccc(Oc3ccnc4[nH]nc(N[C@@H]5CCCN(C(=O)Oc6ccccc6)C5)c34)cc2)c1 , thanks.
// result 6.00 to 7.00

----------
- STUDY TARGET: UniProtKB P06239
- TEST NAME: Lck kinase activity, TR-FRET assay
- Format: biochemical
- APPLIED CONDITIONS: read-out: LCK (IC50)
pIC50: −log10 of the molar value.
Each entry below carries its reported pIC50.

CC1(C(=O)N2CCC[C@@H](Nc3n[nH]c4nccc(Oc5ccc(C(=O)Nc6ccccn6)cc5)c34)C2)CCOCC1 [compound 112] = 5.00 to 6.00
CC1(C(=O)N2CCC[C@@H](Nc3n[nH]c4nccc(Oc5ccc(C(=O)Nc6cc(C(F)(F)F)ccn6)cc5)c34)C2)COC1 [compound 84] = 6.00 to 7.00
CCC(=O)N1CCC[C@@H](Nc2n[nH]c3nccc(Oc4ccc(C(=O)Nc5cc(C(F)(F)F)ccn5)cc4)c23)C1 [compound 225] = 6.00 to 7.00
CN(C/C=C/C(=O)N1CC[C@@H](Oc2n[nH]c3nccc(Oc4ccc(Oc5ccccc5)cc4)c23)C1)C1CC1 [compound 22] = > 7.00
Cc1ccnc(NC(=O)c2ccc(Oc3ccnc4[nH]nc(N[C@@H]5CCCN(C(=O)c6ncc[nH]6)C5)c34)cc2)c1 [compound 242] = 6.00 to 7.00

// query Need pIC50 of CC(=O)N1CCC[C@@H](Nc2n[nH]c3nccc(Nc4cccc(C(=O)Nc5ccc(C(C)C)c(C)c5)c4)c23)C1 [compound 131] , thanks.
// result 5.00 to 6.00

// query Thanks! And CN(C/C=C/C(=O)N1CC[C@@H](Nc2n[nH]c3nccc(Oc4ccc(C(=O)Nc5ncccn5)cc4)c23)C1)C1CC1 [compound 63] ?
// result < 5.00

// query Thanks! And Cc1ccnc(NC(=O)c2ccc(Oc3ccnc4[nH]nc(N[C@@H]5CCCN(C(=O)[C@@H]6CCOC6)C5)c34)cc2)c1 [compound 115] ?
// result 6.00 to 7.00

// query Thanks! And CCC(=O)N1CCC[C@@H](Nc2n[nH]c3nccc(Oc4ccc(-c5nc6ccccc6s5)cc4)c23)C1 [compound 222] ?
// result 6.00 to 7.00

// query Thanks! And C=CC(=O)N1CCC[C@@H](Nc2n[nH]c3nccc(Oc4cccc(C(=O)Nc5ncc(C)s5)c4)c23)C1 [compound 149] ?
// result 5.00 to 6.00

----------
Each entry below carries its reported pIC50.
- STUDY TARGET: Btk (Homo sapiens)
- TEST NAME: Btk kinase activity, TR-FRET assay
- Format: biochemical
- APPLIED CONDITIONS: read-out: Btk (IC50)
pIC50: −log10 of the molar value.

CN(C)C(=O)N1CCC[C@@H](Nc2n[nH]c3nccc(Oc4ccc(C(=O)Nc5ccccn5)cc4)c23)C1 [compound 233] = > 7.00
CCNC(=O)N[C@H]1CCCN(c2n[nH]c3nccc(Oc4ccc(C(=O)Nc5cc(C(F)(F)F)ccn5)cc4)c23)C1 [compound 234] = 6.00 to 7.00
Cc1cnc(NC(=O)c2ccc(Oc3ccnc4[nH]nc(N[C@@H]5CCN(C(=O)CCCN(C)C)C5)c34)cc2)s1 [compound 202] = > 7.00

// query Record CN(C)C/C=C/C(=O)N1CC[C@@H](Oc2n[nH]c3nccc(Nc4ccc(Oc5ccccc5)cc4)c23)C1 [compound 14] : what is its pIC50 with Btk (Homo sapiens)?
// result > 7.00
